Values from patent US10800813

Provide the recorded pKi for the entries that follow.
target: T1, human plasma Kallikrein (human, UniProt P03952 20-638, limits assumed); assay: enzyme inhibition assay
T1 construct: also called hPK; human PK
T1 sequence (P03952 20-638 limits assumed): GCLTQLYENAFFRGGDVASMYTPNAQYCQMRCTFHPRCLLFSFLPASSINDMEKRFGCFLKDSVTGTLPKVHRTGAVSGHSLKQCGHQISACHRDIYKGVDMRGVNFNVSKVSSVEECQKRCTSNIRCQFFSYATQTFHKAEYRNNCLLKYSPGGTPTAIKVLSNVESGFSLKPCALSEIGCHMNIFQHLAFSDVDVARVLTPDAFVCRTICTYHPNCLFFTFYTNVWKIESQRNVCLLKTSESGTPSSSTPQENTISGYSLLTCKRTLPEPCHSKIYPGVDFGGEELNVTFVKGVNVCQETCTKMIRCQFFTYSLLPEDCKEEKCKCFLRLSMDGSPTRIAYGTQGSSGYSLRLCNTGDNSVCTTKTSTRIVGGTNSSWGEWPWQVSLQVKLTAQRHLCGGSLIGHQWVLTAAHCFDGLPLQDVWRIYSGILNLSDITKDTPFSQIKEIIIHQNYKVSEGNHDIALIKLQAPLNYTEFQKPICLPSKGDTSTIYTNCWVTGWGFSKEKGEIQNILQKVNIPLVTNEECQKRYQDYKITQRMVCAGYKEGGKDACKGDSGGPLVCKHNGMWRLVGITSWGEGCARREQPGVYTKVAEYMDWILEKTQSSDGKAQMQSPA
Numbered stars: 1 amine (or outer) side, 2 acyl side, 3 side chain; on linkers, the order of the positions; unused ones are H or OH. Bridge positions count the residues as written; N and C are the ends. Square brackets hold non-standard residues; d marks the D form. TBMB = c1c(C[*:1])cc(C[*:3])cc1C[*:2]; NMeC = CN[C@@H](CS)C(=O)O; NMeS = CN[C@@H](CO)C(=O)O; NMeA = CN[C@@H](C)C(=O)O
Give bare numbers, as −log10 of the molar value.

Guide cases for pKi, answers given:
{"BINDER": "Ac-CSWP[NMeA]RCLHQDLC-NH2 (linker 1-7-13 via TBMB; SMILES CC(=O)N[C@H]1CSCc2cc3cc(c2)CSC[C@H](NC(=O)[C@H](CCCNC(=N)N)NC(=O)[C@H](C)N(C)C(=O)[C@@H]2CCCN2C(=O)[C@H](Cc2c[nH]c4ccccc24)NC(=O)[C@H](CO)NC1=O)C(=O)N[C@@H](CC(C)C)C(=O)N[C@@H](Cc1c[nH]cn1)C(=O)N[C@@H](CCC(N)=O)C(=O)N[C@@H](CC(=O)O)C(=O)N[C@@H](CC(C)C)C(=O)N[C@H](C(N)=O)CSC3) [Ac-(06-34-18) NMeAla4]", "VALUE_OBSERVED": 6.46}
{"BINDER": "Ac-CSWPARCLHQDLC-NH2 (linker 1-7-13 via TBMB; SMILES CC(=O)N[C@H]1CSCc2cc3cc(c2)CSC[C@H](NC(=O)[C@H](CCCNC(=N)N)NC(=O)[C@H](C)NC(=O)[C@@H]2CCCN2C(=O)[C@H](Cc2c[nH]c4ccccc24)NC(=O)[C@H](CO)NC1=O)C(=O)N[C@@H](CC(C)C)C(=O)N[C@@H](Cc1c[nH]cn1)C(=O)N[C@@H](CCC(N)=O)C(=O)N[C@@H](CC(=O)O)C(=O)N[C@@H](CC(C)C)C(=O)N[C@H](C(N)=O)CSC3, also called Ac-(06-34-18) wildtype; Ac-(06-34-18) WPAR) [Ac-06-34-18(TMB)-NH2]", "VALUE_OBSERVED": 9.77}
{"BINDER": "Ac-CSWPAR[NMeC]LHQDLC-NH2 (linker 1-7-13 via TBMB; SMILES CC(=O)N[C@H]1CSCc2cc3cc(c2)CSC[C@@H](C(=O)N[C@@H](CC(C)C)C(=O)N[C@@H](Cc2c[nH]cn2)C(=O)N[C@@H](CCC(N)=O)C(=O)N[C@@H](CC(=O)O)C(=O)N[C@@H](CC(C)C)C(=O)N[C@H](C(N)=O)CSC3)N(C)C(=O)[C@H](CCCNC(=N)N)NC(=O)[C@H](C)NC(=O)[C@@H]2CCCN2C(=O)[C@H](Cc2c[nH]c3ccccc23)NC(=O)[C@H](CO)NC1=O) [Ac-(06-34-18) NMeCys2]", "VALUE_OBSERVED": 6.38}

Consider now this further binder.
Requested field: pKi. Item: Ac-C[NMeS]WP[NMeA]RCLHQDLC-NH2 (linker 1-7-13 via TBMB; SMILES CC(=O)N[C@H]1CSCc2cc3cc(c2)CSC[C@H](NC(=O)[C@H](CCCNC(=N)N)NC(=O)[C@H](C)N(C)C(=O)[C@@H]2CCCN2C(=O)[C@H](Cc2c[nH]c4ccccc24)NC(=O)[C@H](CO)N(C)C1=O)C(=O)N[C@@H](CC(C)C)C(=O)N[C@@H](Cc1c[nH]cn1)C(=O)N[C@@H](CCC(N)=O)C(=O)N[C@@H](CC(=O)O)C(=O)N[C@@H](CC(C)C)C(=O)N[C@H](C(N)=O)CSC3) [Ac-(06-34-18) NMeSer1, NMeAla4]
6.35
